# Tested System: Prothrombin (Homo sapiens) (UniProt P00734)
# Assay Name: Time to reach maximum percent inhibition by the compound was determined against thrombin (1.93 nM)
# Assay type: functional

# Compound, Tested System, TIME / h
rows = [
    ("N=C(N)Nc1ccc(C2CC(=O)O/C(=C/I)C2)cc1 (centres undefined)", "Prothrombin (Homo sapiens) (UniProt P00734)", 1.5),
    ("C=C1CC(c2ccc(NC(=N)N)cc2)CC(=O)O1 (centres undefined)", "Prothrombin (Homo sapiens) (UniProt P00734)", 0.25),
    ("N=C(N)Nc1ccc(C2CC/C(=C\\I)OC2=O)cc1 (centres undefined)", "Prothrombin (Homo sapiens) (UniProt P00734)", 0),
    ("C=C1CCC(c2ccc(NC(=N)N)cc2)C(=O)O1 (centres undefined)", "Prothrombin (Homo sapiens) (UniProt P00734)", 0),
]
